Measured on: T1, extracellular domain (ECD) of human TrkA protein, N-terminal flag tag and C-terminal His tag (PHA) (human, UniProt P04629 33-423)
T1 construct: Made in 293-F cells and purified by IMAC; also called TrkA ECD protein; TrkA (ECD); not shown: flag tag at the N-terminus (after the signal peptide); His tag at the C-terminus
Experimental protocol: BLI (Octet Red384), as in Example 4
Description: The bio-layer interferometry (BLI) method was used to determine the affinities of the antibodies, employing Octet Red384. Briefly, anti-human Fc-coated biosensor AHQ tips (ForteBio) were put into PBS with 0.1% w/v bovine serum albumin and 0.05% Tween-20 for a minimum of 10 min in the pre-wetting plate. […] Then, the association rates, dissociation rates and response were measured, using an antigen of 100 nM (in PBS with 0.1% bovine serum albumin and 0.05% Tween-20). […]
Quantity name: Kd
The answer consists of two parts: a number and, after it, its unit.

I would be grateful if you could share the reported Kd for chi-PHD48 (the chimeric antibody derived from muPHD48) (antibody, V domains shown, Chimeric: VH in the pCDNA3.4-hIgG4 vector and VL in the pCDNA3.4-hKappa vector (human IgG4 / human kappa constant regions)) VH: EVQLQQSGTVLARPGASVKMSCKASGYSFTTYWMHWVKQRPGQGLEWIGTIYPGNSDSSNNQKFKGKAKLTAVTSASTAYMELSSLTNEDSAVYYCTRFYYEDWYFDVWGAGTTVTVSS VL: QIVLTQSPAIMSASPGEKVTISCSASSSVSYMYWFQQKPGSSPKPWIYRTSNLASGVPARFSGSGSGTSYSLTISSMEAEDAATYYCQQYHSYPPTFGGGTKLEIK .
2.8 nM
